METHOD DESCRIPTION: qHTS for Inhibitors of TGF-b; note: nearly all actives have a fitted effect of over 65% in size; note: potency is the fitted concentration of half-maximal effect
ASSAY SETUP: HepG2 CAGA-GFP TGF-b/SMAD3 reporter, GFP fluorescence, 18 h, TGF-beta stimulated, 500 pg/mL final; series mostly up to 46.1 µM
The campaign covered roughly 410,000 compounds. About 5,000 (1.2%) were called active. Inconclusive results (about 13%) are left out. This excerpt belongs to a sample that is enriched for actives.
RESULT TYPE: Potency

- COMPOUND: "Cc1cccc(N2CCN(C3=C(c4ccccc4)C(=O)c4ccccc43)CC2)c1C"
  Potency: "inactive"
- COMPOUND: "CC(C)c1cc(C(=O)NC2CCCCCC2)c2ccccc2n1"
  Potency: "inactive"
- COMPOUND: "COc1ccccc1NC(=O)CSc1oc(-c2ccco2)nc1S(=O)(=O)c1ccc(Br)cc1"
  Potency: "inactive"
- COMPOUND: "Cc1ccc(C)c(Cn2c(CCCNC(=O)C3CCCCC3)nc3ccccc32)c1"
  Potency: "inactive"

Entry `COc1ccc2nc(N3CCN(C(=O)c4ccc([N+](=O)[O-])o4)CC3)sc2c1` , Potency reported as 10 µM (active)

Entry `O=C(CSc1nc(Nc2ccc(F)c(F)c2)c2ccccc2n1)c1ccc(Cl)cc1` , Potency reported as inactive

Entry CCCCOc1ccc(C(=O)N2CC(=O)Nc3ccc(Br)cc3C2c2ccc(F)cc2)cc1 (stereo unspecified) , Potency reported as inactive

Entry `O=C(Nc1ccccc1C(F)(F)F)c1nc(S(=O)(=O)Cc2ccccc2F)ncc1Cl` , Potency reported as 3.16 µM (active)

---

METHOD DESCRIPTION: qHTS for Inhibitors of TGF-b; note: nearly all actives have a fitted effect of over 65% in size; note: potency is the fitted concentration of half-maximal effect
ASSAY SETUP: HepG2 CAGA-GFP TGF-b/SMAD3 reporter, GFP fluorescence, 18 h, TGF-beta stimulated, 500 pg/mL final; series mostly up to 46.1 µM
Screen size: about 410,000 compounds; about 5,000 (1.2%) were called active. Not shown: some 13% with an inconclusive outcome. Only a selection was taken, and actives are over-represented in it overall.
RESULT TYPE: Potency

- COMPOUND: "COc1cccc2sc(N(CCCN(C)C)C(=O)C(c3ccccc3)c3ccccc3)nc12"
  Potency: "12.6 µM (active)"
- COMPOUND: "O=C(Nc1ccccc1)Oc1cccc2cccnc12"
  Potency: "8.91 µM (active)"
- COMPOUND: "CCOC(=O)c1c(S(=O)(=O)NCC(=O)Nc2ccc(C)cc2)c(C)n(C)c1C"
  Potency: "inactive"
- COMPOUND: "COc1ccc(NC(=O)c2sc3nc(-c4cc5cccc(OC)c5oc4=O)[nH]c(=O)c3c2C)cc1"
  Potency: "inactive"
- COMPOUND: "Cc1cccc2sc(N(CCCN(C)C)C(=O)CCS(=O)(=O)c3ccccc3)nc12"
  Potency: "3.16 µM (active)"
- COMPOUND: "O=C(COc1ccccc1C(=O)Nc1ccccc1)Nc1cccc(F)c1"
  Potency: "inactive"
- COMPOUND: "COc1cccc2sc(N(CCCN(C)C)C(=O)CCS(=O)(=O)c3ccccc3)nc12"
  Potency: "1.12 µM (active)"
- COMPOUND: "Cc1ccc(-n2c3nc(=O)[nH]c(=O)c-3cc3c(Cl)cccc32)cc1"
  Potency: "inactive"

Below: the item to evaluate.
Entry `Cc1onc(-c2c(F)cccc2Cl)c1C(=O)Nc1cccc(S(=O)(=O)N2CCCCC2)c1` , Potency reported as inactive
